- System: Aspergillus fumigatus Fresenius BNCC338385
- Protocol: MIC by microdilution method, sensitive Aspergillus fumigatus Fresenius
- Format: cell-based
- Settings: Aspergillus fumigatus; sensitive strain; 35° C., 24 h; minimum concentration with inhibition rate greater than 80%; read-out: MIC Aspergillus fumigatus Fresenius
- Description: Used bacteria: including drug-resistant bacteria and sensitive bacteria: the used sensitive strains include Cryptococcus neoformans BNCC225501, Candida albicans BNCC186382, Aspergillus fumigatus Fresenius BNCC338385, Escherichia coli BNCC336902, Staphylococcus aureus BNCC186335 and Pseudomonas aeruginosa Migula BNCC337940, and the used drug-resistant Candida albicans is clinically isolated azole multi-drug resistant Candida albicans (CA10) donated by Qianfoshan Hospital in Shandong Province. […]
Recorded endpoint: MIC (µg/mL)

[[record]]
molecule = "COc1ccc2[nH]c(-c3ccccc3)cc2c1 [Compound 18]"
recorded_endpoint = "MIC"
meas_value = 256

[[record]]
molecule = "Brc1ccc2cc(-c3ccccc3)[nH]c2c1 [Compound 23]"
recorded_endpoint = "MIC"
meas_value = 256

[[record]]
molecule = "Fc1ccc2[nH]c(-c3ccccc3)cc2c1 [Compound 22]"
recorded_endpoint = "MIC"
meas_value = 256


a. COC(=O)c1ccc2[nH]c(-c3ccccc3)cc2c1 [Compound 19]
b. COc1ccc2cc(-c3ccccc3)[nH]c2c1 [Compound 3]
input: // pick min by MIC: a , b Record your answer as the label of the chosen record.
output: a

* * *

- System: Candida albicans BNCC186382
- Protocol: MIC by microdilution method, sensitive Candida albicans
- Format: cell-based
- Settings: Candida albicans, BNCC186382, 24 h, read-out: MIC Candida albicans
MIC reference
Give the number; µg/mL is assumed, so skip it.

Reference set, count: 6
[[record]]
input_smiles = "COc1cccc(-c2cc3ccccc3[nH]2)c1"
meas_value = 16

[[record]]
input_smiles = "Cc1cccc(-c2cc3ccccc3[nH]2)c1"
meas_value = 256

[[record]]
input_smiles = "Cc1ccccc1-c1cc2ccccc2[nH]1"
meas_value = 4

[[record]]
input_smiles = "O=[N+]([O-])c1cccc(-c2cc3ccccc3[nH]2)c1"
meas_value = 4

[[record]]
input_smiles = "Cc1ccc(-c2cc3ccccc3[nH]2)cc1"
meas_value = 256

[[record]]
input_smiles = "FC(F)(F)c1ccc(-c2cc3ccccc3[nH]2)cc1"
meas_value = 256


Now for the molecule whose MIC we want.
input: Which MIC value belongs to "c1ccc2[nH]c(-c3ccc4c(c3)OCO4)cc2c1" ?
output: 256

* * *

- Test system: Candida albicans BNCC186382
- Protocol: MIC by microdilution method, sensitive Candida albicans
- Format: cell-based
- Settings: Candida albicans, BNCC186382; sensitive strain; 35° C., 24 h; minimum concentration with inhibition rate greater than 80%; read-out: MIC Candida albicans
Recorded endpoint: MIC (µg/mL)

[[record]]
input_smiles = "Cc1ccc2[nH]c(-c3ccccc3)cc2c1"
unit_of_measurement = "µg/mL"
meas_value = 256


I. Clc1ccc2cc(-c3ccccc3)[nH]c2c1
II. COC(=O)c1ccc2[nH]c(-c3ccccc3)cc2c1
III. Brc1ccc2cc(-c3ccccc3)[nH]c2c1
input: Order field: MIC | Direction: descending (largest first) List each label, following the requested order.
output: III, I, II
(III: 256 µg/mL, I: 16 µg/mL, II: 8 µg/mL)

* * *

- System: Aspergillus fumigatus Fresenius BNCC338385
- Protocol: MIC by microdilution method, sensitive Aspergillus fumigatus Fresenius
- Type: cell-based
- Settings: Aspergillus fumigatus, 24 h, read-out: MIC Aspergillus fumigatus Fresenius
MIC for assorted compounds

Example entries and their recorded answers appear below.
[[record]]
input_smiles = "Fc1ccc(-c2cc3ccccc3[nH]2)cc1"
assayed_target = "Aspergillus fumigatus Fresenius BNCC338385"
recorded_endpoint = "MIC"
meas_value = "> 256 µg/mL"

[[record]]
input_smiles = "c1ccc(-c2cc3ccccc3[nH]2)cc1"
assayed_target = "Aspergillus fumigatus Fresenius BNCC338385"
recorded_endpoint = "MIC"
meas_value = "> 256 µg/mL"


Attention now turns to another entry.
input: Which MIC is listed for "Clc1ccc(-c2cc3ccccc3[nH]2)cc1" ?
output: > 256 µg/mL

* * *

- Tested on: Candida albicans BNCC186382
- Protocol: MIC by microdilution method, sensitive Candida albicans
- Assay type: cell-based
- Settings: Candida albicans, BNCC186382, 24 h, read-out: MIC Candida albicans
Recorded endpoint: MIC

// below: answered molecules
[[record]]
input_smiles = "Fc1ccc(-c2cc3ccccc3[nH]2)cc1"
meas_value = "> 256 µg/mL"

[[record]]
input_smiles = "Clc1ccc(-c2cc3ccccc3[nH]2)cc1"
meas_value = "> 256 µg/mL"


input: # MIC lookup, item "c1ccc(-c2cc3ccccc3[nH]2)cc1"
output: > 256 µg/mL

Reference for the values: patent US20250154099A1
